Molecular target: bromodomain of BRD9 (GST-BRD9 aa 130-259) / H3 K9/14/18/23Ac(1-28) peptide (Homo sapiens, UniProt Q9H8M2)
Construct: The protein corresponding to amino acids 130-259 that contains the bromodomain of BRD9
Sequence (Q9H8M2 130-259): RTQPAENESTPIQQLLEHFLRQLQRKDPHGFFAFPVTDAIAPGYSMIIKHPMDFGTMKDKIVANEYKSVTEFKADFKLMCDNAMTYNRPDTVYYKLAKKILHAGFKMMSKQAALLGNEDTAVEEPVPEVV
Assay: BRD9-H3 tetra-acetylated Peptide Inhibition AlphaScreen
A collection of compounds and their measured IC50
METRIC_NAME: IC50 (nM)

INSERT INTO results (compound, metric_name, result_number) VALUES
  ('COc1cc(-c2cn(C)c(=O)c3cncnc23)cc(OC)c1CN1CC(O)C1', 'IC50', 42),
  ('Cc1cc(-c2ccc3c(c2)CN(C)C3)c(C)n(C)c1=O', 'IC50', 750),
  ('COc1cc(-c2cc(C)c(=O)n(C)c2)ccc1S(=O)(=O)NCCN(C)C', 'IC50', 213),
  ('COc1cc(-c2cn(C)c(=O)c3ccccc23)ccc1CN(C)C', 'IC50', 126),
  ('Cc1cc(-c2cn(C)c(=O)c3[nH]ccc23)ccc1C(=O)N1CCNCC1', 'IC50', 68),
  ('Cc1cc(-c2ccc(C3(N4CCN(C)CC4)CC3)cc2)cn(C)c1=O', 'IC50', 1210),
  ('COc1cc(-c2cn(C)c(=O)c3[nH]ccc23)ccc1C(=O)N1CCN(C)CC1', 'IC50', 95),
  ('Cc1cc(-c2ccc(CN3CC4CCC3C4)cc2)cn(C)c1=O (stereo not drawn)', 'IC50', 1320),
  ('Cc1cc(-c2ccc(S(=O)(=O)N(C)C)cc2)cn(C)c1=O', 'IC50', 976);

====

Biological target: bromodomain of BRD9 (GST fusion) / acetylated histone H4 peptide (BET Bromodomain Ligand) (Homo sapiens, UniProt Q9H8M2)
Construct: A GST fusion protein of the bromodomain of BRD9
Sequence (Q9H8M2 136-240 limits assumed): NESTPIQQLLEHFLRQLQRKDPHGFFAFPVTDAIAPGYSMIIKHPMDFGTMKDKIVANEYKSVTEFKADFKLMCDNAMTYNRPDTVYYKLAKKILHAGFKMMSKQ
Test: BRD9-H4 Tetraacetylated Peptide Inhibition AlphaScreen
METRIC_NAME: IC50

INSERT INTO assay_data (substance_smiles, metric_name, result) VALUES
  ('Cc1cc(-c2ccc(CN3CCOCC3)cc2)cn(C)c1=O', 'IC50', '0.109 µM'),
  ('COc1cc(-c2cc(C)c(=O)n(C)c2)ccc1C(=O)N1CCN(C)CC1', 'IC50', '0.07 µM'),
  ('Cc1cc(-c2ccc(C(=O)N3CCN(C)CC3)c(CS(C)(=O)=O)c2)cn(C)c1=O', 'IC50', '0.103 µM');

====

Target: bromodomain of BRD9 (GST-BRD9 aa 130-259) / H3 K9/14/18/23Ac(1-28) peptide (Homo sapiens, UniProt Q9H8M2)
Construct: The protein corresponding to amino acids 130-259 that contains the bromodomain of BRD9
Assay: BRD9-H3 tetra-acetylated Peptide Inhibition AlphaScreen
pIC50: −log10 of the molar value.
METRIC_NAME: pIC50

INSERT INTO measurements (compound, metric_name, result_number) VALUES
  ('COc1cc(S(=O)(=O)N(C)CCN(C)C)c(OC)cc1-c1cn(C)c(=O)c(C)c1C [Compound I-110]', 'pIC50', 6.71),
  ('CNCc1ccc(-c2cc(C)c(=O)n(C)c2)cc1 [Compound I-181]', 'pIC50', 6.00),
  ('Cc1cc(-c2ccc(CN3CCCC3)cc2)cn(C)c1=O [Compound I-180]', 'pIC50', 6.06),
  ('Cc1cc(-c2ccc(C3(N(C)C)CCC3)cc2)cn(C)c1=O [Compound I-66]', 'pIC50', 6.67),
  ('COCCOc1cc(-c2cc(C)c(=O)n(C)c2)ccc1CN1CCN(C)CC1 [Compound I-195]', 'pIC50', 6.43),
  ('Cc1cc(-c2cc(C)c(=O)n(C)c2)ccc1C1(N(C)C)CC1 [Compound I-60]', 'pIC50', 6.84),
  ('Cc1cc(-c2ccc(N3CCOCC3)cc2)c(C)n(C)c1=O [Compound I-215]', 'pIC50', 5.04),
  ('Cc1cc(-c2ccc(C(=O)N3CCN(C)CC3)cc2)c(C)n(C)c1=O [Compound I-214]', 'pIC50', 5.49),
  ('CN(C)Cc1ccc(-c2cn(C)c(=O)c3ccc(Cn4cccn4)cc23)cc1 [II-20]', 'pIC50', 6.75),
  ('Cc1c(-c2ccc(C(N)=O)cc2)cn(C)c(=O)c1C [Compound I-213]', 'pIC50', 5.27),
  ('CNS(=O)(=O)c1ccc(-c2cc(C)c(=O)n(C)c2)cc1 [Compound I-12]', 'pIC50', 5.81),
  ('COc1cc(-c2cn(C)c(=O)c3cncnc23)cc(OC)c1CNC1CNC1 [II-33]', 'pIC50', 7.64),
  ('CNCCN(C)S(=O)(=O)c1cc(OC)c(-c2cn(C)c(=O)c(C)c2C)cc1OC [Compound I-152]', 'pIC50', 6.84),
  ('Cc1cc(-c2ccc(CN3CCN(C)CC3)c(OC(C)C)c2)cn(C)c1=O [Compound I-196]', 'pIC50', 6.00),
  ('COc1cc(-c2cc(C)c(=O)n(C)c2)ccc1C(=O)N1C[C@@H]2CC1CN2C [Compound I-77]', 'pIC50', 6.38),
  ('Cc1cc(-c2ccc(C3(N(C)C)CC3)cc2)cn(C)c1=O [Compound I-58]', 'pIC50', 6.86),
  ('COc1cc(-c2cc(C)c(=O)n(C)c2C)cc(OC)c1CN1CCNCC1 [Compound I-124]', 'pIC50', 6.84),
  ('COc1cc(-c2cc(C)c(=O)n(C)c2)ccc1CN1CCN(C)C(C)C1 (centres unmarked) [Compound I-86]', 'pIC50', 6.11),
  ('COc1cc(-c2cc(C)c(=O)n(C)c2C)c(OC)cc1CN1CCNCC1 [Compound I-156]', 'pIC50', 5.75),
  ('COc1cc(-c2cn(C)c(=O)c3cnccc23)cc(OC)c1CN1CC(O)C1 [II-34]', 'pIC50', 8.10),
  ('Cc1cc(-c2ccc(S(=O)(=O)C(C)C)cc2)cn(C)c1=O [Compound I-13]', 'pIC50', 5.80),
  ('Cc1cc(-c2ccc(Cn3ccnc3)cc2)cn(C)c1=O [Compound I-185]', 'pIC50', 5.81),
  ('COc1cc(-c2cc(C)c(=O)n(C)c2C)ccc1CN1C[C@@H]2CC1CN2 [Compound I-127]', 'pIC50', 6.70);
